Assay: chemical genetic growth profiling, strain panel (AID 1159580);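 note: tested at 20 µM; growth read once vehicle control cultures reached saturation at 30 °C; 1 = growth at the plate median or of vehicle wells; lower values mean less growth of the strain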
Conditions: S. cerevisiae deletion strains, growth OD, locus YGR252W, strain gcn5, hits give low values
The campaign covered roughly 5,500 compounds. About 2,000 (36%) were called active. Another 18% or so got no clear call; they are omitted. Some of the results follow.
metric: normalized growth
Provide a numeric answer; units are not to be included.

INSERT INTO measurements (compound, readout_value) VALUES
  ('COc1cc(OC)c2c(=O)c(O)c(-c3ccc(OC)c(OC)c3)oc2c1', 0.85),
  ('CCCC(C)(COC(N)=O)COC(=O)NC(C)C (centres undefined)', 0.989),
  ('O=C(OC1Cc2c(O)cc(O)cc2OC1c1cc(=O)c(O)c2c(O)c(O)cc(C3Oc4cc(O)cc(O)c4CC3O)c2c1)c1cc(O)c(O)c(O)c1 (centres undefined)', 0.56),
  ('O=C(O[C@@H]1Cc2c(O)cc(O)cc2O[C@@H]1c1cc(O)c(=O)c2c(O)c(O)cc([C@H]3Oc4cc(O)cc(O)c4C[C@H]3O)c2c1)c1cc(O)c(O)c(O)c1', 0.75),
  ('COc1cc(O)c2c(=O)c(O)c(-c3ccc(O)c(O)c3)oc2c1', 1.03),
  ('CCc1cc(C(N)=S)ccn1', 1.14);

Fill in the blank: the reported normalized growth of CCC(c1ccc(O)cc1)C(CC)c1ccc(O)cc1 (centres undefined) is ____. 0.902

Fill in the blank: the reported normalized growth of `CC/C(=C(/CC)c1ccc(O)cc1)c1ccc(O)cc1` is ____. 0.921

Fill in the blank: the reported normalized growth of `O=C(O[C@@H]1Cc2c(O)cc(O)cc2O[C@@H]1c1cc(O)c(=O)c2c(O)c(O)cc([C@H]3Oc4cc(O)cc(O)c4C[C@H]3OC(=O)c3cc(O)c(O)c(O)c3)c2c1)c1cc(O)c(O)c(O)c1` is ____. 0.896
